Average Ca2+ Counts values, listed per item
Target: human TRPV1 (Homo sapiens)
Sequence (Q8NER1 whole entry): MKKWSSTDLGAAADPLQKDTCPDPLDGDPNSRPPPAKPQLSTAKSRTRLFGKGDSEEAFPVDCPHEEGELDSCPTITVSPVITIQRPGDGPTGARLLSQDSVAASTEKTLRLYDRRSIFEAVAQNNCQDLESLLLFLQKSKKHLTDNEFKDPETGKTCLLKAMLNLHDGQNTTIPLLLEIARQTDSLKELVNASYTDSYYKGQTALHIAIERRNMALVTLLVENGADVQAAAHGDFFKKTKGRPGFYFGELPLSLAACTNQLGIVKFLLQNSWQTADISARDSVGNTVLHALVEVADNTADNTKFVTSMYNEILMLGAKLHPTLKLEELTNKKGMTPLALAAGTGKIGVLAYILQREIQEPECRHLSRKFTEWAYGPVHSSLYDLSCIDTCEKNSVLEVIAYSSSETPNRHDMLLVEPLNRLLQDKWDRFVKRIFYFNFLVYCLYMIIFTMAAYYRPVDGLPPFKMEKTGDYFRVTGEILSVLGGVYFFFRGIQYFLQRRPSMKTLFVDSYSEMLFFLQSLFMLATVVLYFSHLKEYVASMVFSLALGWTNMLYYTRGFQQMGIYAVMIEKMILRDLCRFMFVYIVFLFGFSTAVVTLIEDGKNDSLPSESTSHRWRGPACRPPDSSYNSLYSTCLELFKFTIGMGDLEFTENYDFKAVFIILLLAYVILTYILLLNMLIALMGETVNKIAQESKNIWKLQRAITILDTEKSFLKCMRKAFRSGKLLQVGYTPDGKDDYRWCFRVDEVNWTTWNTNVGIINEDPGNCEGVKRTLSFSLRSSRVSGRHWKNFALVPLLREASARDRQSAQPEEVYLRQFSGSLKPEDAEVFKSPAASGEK
Protocol Summary: FLIPR Ca2+ assay, reduction of L-Menthol activation of TRPV1
Measurement Context: antagonist 100 μM against 1 mM L-Menthol

- Compound: "CCOC(=O)CCc1ccco1 [ethyl 3-(2-furyl)propionate]"
  Average Ca2+ Counts: "4446.5 Counts"
- Compound: "CCC1CCC(=O)O1 (centres unmarked) [gamma-caprolactone]"
  Average Ca2+ Counts: "1084.3 Counts"
- Compound: "CCCCCCCC/C=C\\CCCCCCCC(=O)OCC [ethyl oleate]"
  Average Ca2+ Counts: "1431.3 Counts"
- Compound: "CCCOC(C)OCCc1ccccc1 (centres unmarked) [2-(1-propoxyethoxy)ethylbenzene]"
  Average Ca2+ Counts: "1480.7 Counts"
- Compound: "CCCCCCCCCCCCCCCCCC(=O)OCC(O)CO (racemic) [1-stearoyl-rac-glycerol]"
  Average Ca2+ Counts: "4708.0 Counts"
